- Test system: AMO-1 xenograft
- MEASUREMENT_DESCRIPTION: AMO-1 xenograft model of multiple myeloma
- Assay type: in vivo
- RECORDED_CONDITIONS: Mus musculus, AMO1; 25 mg/kg/day, IP, QDx1; SCID/bg mice; read-out: TGImax (%)
EXPERIMENTAL_READOUT: inhibition in vivo at 25 mg/kg (%)

COMPOUND	EXPERIMENTAL_READOUT	VALUE_UNITS	DATA_VALUE
Cc1c(Cl)c2c(Cl)c(C)c1-c1c(-c3ccc(F)cc3)sc3ncnc(c13)O[C@@H](C(=O)O)Cc1cc(ccc1OCc1ccnc(-c3ccc(OC[C@@H]4COCCO4)cc3)n1)OC[C@@H](CN1CCN(C)CC1)O2	inhibition in vivo at 25 mg/kg	%	99
Cc1c(Cl)c2c(Cl)c(C)c1-c1c(-c3ccc(F)cc3)sc3ncnc(c13)O[C@@H](C(=O)O)Cc1cc(ccc1OCc1ccnc(N3CCC(F)(COC[C@@H]4COCCO4)CC3)n1)OC[C@@H](CN1CCN(C)CC1)O2	inhibition in vivo at 25 mg/kg	%	79
Cc1c(Cl)c2c(Cl)c(C)c1-c1c(-c3ccc(F)cc3)sc3ncnc(c13)O[C@@H](C(=O)O)Cc1cc(ccc1OCc1ccnc(-c3ccccc3OCC3COC(C)(C)O3)n1)OC[C@@H](CN1CCN(C)CC1)O2 (stereo in doubt)	inhibition in vivo at 25 mg/kg	%	75
Cc1c(Cl)c2c(Cl)c(C)c1-c1c(-c3ccc(F)cc3)sc3ncnc(c13)O[C@@H](C(=O)O)Cc1cc(ccc1OCc1ccnc(-c3ccc(OC[C@H]4COC(C)(C)O4)cc3)n1)OC[C@@H](CN1CCN(C)CC1)O2	inhibition in vivo at 25 mg/kg	%	95

----------
- TARGET_UNDER_TEST: GST-MCL-1 (Homo sapiens (Human), UniProt Q07820)
- Sequence (Q07820 whole entry): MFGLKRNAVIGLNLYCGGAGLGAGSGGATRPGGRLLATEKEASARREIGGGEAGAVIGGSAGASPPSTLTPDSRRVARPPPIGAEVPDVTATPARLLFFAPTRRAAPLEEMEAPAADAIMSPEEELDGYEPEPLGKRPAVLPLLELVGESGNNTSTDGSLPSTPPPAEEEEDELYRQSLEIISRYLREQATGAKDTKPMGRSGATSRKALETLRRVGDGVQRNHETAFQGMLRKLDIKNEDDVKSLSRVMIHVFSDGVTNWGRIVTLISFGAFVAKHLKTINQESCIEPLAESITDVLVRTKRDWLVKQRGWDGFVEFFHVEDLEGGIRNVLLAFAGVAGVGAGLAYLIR
- MEASUREMENT_DESCRIPTION: TR-FRET MCL-1 binding assay (competition with probe F-Bak)
- RECORDED_CONDITIONS: without HS, read-out: MCL-1 Binding Ki
Response field label: string, one of yes (Ki strictly below 40 pM) or no.

COMPOUND	CATEGORY
Cc1c(Cl)c2c(Cl)c(C)c1-c1c(-c3ccc(F)cc3)sc3ncnc(c13)O[C@@H](C(=O)O)Cc1cc(ccc1OCc1ccnc(N3CC(COC[C@H]4COCCO4)C3)n1)OC[C@@H](CN1CCN(C)CC1)O2	no
Cc1c(Cl)c2c(Cl)c(C)c1-c1c(-c3ccc(F)cc3)sc3ncnc(c13)O[C@@H](C(=O)O)Cc1cc(ccc1OCc1ccnc([C@H]3CC[C@@](F)(COC[C@@H]4COCCO4)CC3)n1)OC[C@@H](CN1CCN(C)CC1)O2	yes
Cc1c(Cl)c2c(Cl)c(C)c1-c1c(-c3ccc(F)cc3)sc3ncnc(c13)O[C@@H](C(=O)O)Cc1cc(ccc1OCc1ccnc(-c3ccc(OC[C@@H]4COCCO4)nc3)n1)OC[C@@H](CN1CCN(C)CC1)O2	no
Cc1c(Cl)c2c(Cl)c(C)c1-c1c(-c3ccc(F)cc3)sc3ncnc(c13)O[C@@H](C(=O)O)Cc1cc(ccc1OCc1ccnc([C@H]3CC[C@](F)(COC[C@@H]4COCCO4)CC3)n1)OC[C@@H](CN1CCN(C)CC1)O2	yes
Cc1c(Cl)c2c(Cl)c(C)c1-c1c(-c3ccc(F)cc3)sc3ncnc(c13)O[C@@H](C(=O)O)Cc1cc(ccc1OCc1ccnc(C3=CC[C@@](F)(COC[C@H]4COCCO4)CC3)n1)OC[C@@H](CN1CCN(C)CC1)O2	yes
Cc1c(Cl)c2c(Cl)c(C)c1-c1c(-c3ccc(F)cc3)sc3ncnc(c13)O[C@@H](C(=O)O)Cc1cc(ccc1OCc1ccnc(-c3ccc(OC[C@@H]4COCCO4)cc3)n1)OC[C@@H](CN1CCN(C)CC1)O2	yes
Cc1c(Cl)c2c(Cl)c(C)c1-c1c(-c3ccc(F)cc3)sc3ncnc(c13)O[C@@H](C(=O)O)Cc1cc(ccc1OCc1ccnc(OC[C@@H]3COCCO3)n1)OC[C@@H](CN1CCN(C)CC1)O2	yes
Cc1c(Cl)c2c(Cl)c(C)c1-c1c(-c3ccc(F)cc3)sc3ncnc(c13)O[C@@H](C(=O)O)Cc1cc(ccc1OCc1ccnc(OC[C@H]3COCCO3)n1)OC[C@@H](CN1CCN(C)CC1)O2	yes
Cc1c2ccc(c1Cl)O[C@H](CN1CCN(C)CC1)COc1ccc(OCc3ccnc(C4COCCO4)n3)c(c1)C[C@H](C(=O)O)Oc1ncnc3sc(-c4ccc(F)cc4)c-2c13 (stereo partly drawn)	no
Cc1c(Cl)c2c(Cl)c(C)c1-c1c(-c3ccc(F)cc3)sc3ncnc(c13)O[C@@H](C(=O)O)Cc1cc(ccc1OCc1ccnc([C@H]3CC[C@H](OCC4COCO4)CC3)n1)OC[C@@H](CN1CCN(C)CC1)O2 (stereo partly drawn)	yes
Cc1c(Cl)c2c(Cl)c(C)c1-c1c(-c3ccc(F)cc3)sc3ncnc(c13)O[C@@H](C(=O)O)Cc1cc(ccc1OCc1ccnc(N3CC(COC[C@@H]4COCCO4)C3)n1)OC[C@@H](CN1CCN(C)CC1)O2	no
COc1ccccc1-c1nccc(COc2ccc3cc2C[C@H](C(=O)O)Oc2ncnc4sc(C5=COCCO5)c(c24)-c2c(C)c(Cl)c(c(Cl)c2C)O[C@H](CN2CCN(C)CC2)CO3)n1	yes
Cc1c(Cl)c2c(Cl)c(C)c1-c1c(-c3ccc(F)cc3)sc3ncnc(c13)O[C@@H](C(=O)O)Cc1cc(ccc1OCc1ccnc(C3=CC[C@](F)(COC[C@@H]4COCCO4)CC3)n1)OC[C@@H](CN1CCN(C)CC1)O2	yes
Cc1c(Cl)c2c(Cl)c(C)c1-c1c(-c3ccc(F)cc3)sc3ncnc(c13)O[C@@H](C(=O)O)Cc1cc(ccc1OCc1ccnc(N3CCN(S(=O)(=O)CC4COCCO4)CC3)n1)OC[C@@H](CN1CCN(C)CC1)O2 (stereo partly drawn)	no
Cc1c(Cl)c2c(Cl)c(C)c1-c1c(-c3ccc(F)cc3)sc3ncnc(c13)O[C@@H](C(=O)O)Cc1cc(ccc1OCc1ccnc([C@H]3CC[C@H](COC[C@H]4COCCO4)CC3)n1)OC[C@@H](CN1CCN(C)CC1)O2	yes
Cc1c(Cl)c2c(Cl)c(C)c1-c1c(-c3ccc(F)cc3)sc3ncnc(c13)O[C@@H](C(=O)O)Cc1cc(ccc1OCc1ccnc(N3CCC(F)(COC[C@@H]4COCCO4)CC3)n1)OC[C@@H](CN1CCN(C)CC1)O2	no
Cc1c(Cl)c2c(Cl)c(C)c1-c1c(C3CCCCC3)sc3ncnc(c13)O[C@@H](C(=O)O)Cc1cc(ccc1OCc1ccnc(-c3ccc(OC[C@@H]4COCCO4)cc3)n1)OC[C@@H](CN1CCN(C)CC1)O2	no
COc1ccccc1-c1nccc(COc2ccc3cc2C[C@H](C(=O)O)Oc2ncnc4sc(C[C@H]5COCCO5)c(c24)-c2c(C)c(Cl)c(c(Cl)c2C)O[C@H](CN2CCN(C)CC2)CO3)n1	no

----------
- TARGET_UNDER_TEST: GST-MCL-1 (Homo sapiens (Human), UniProt Q07820)
- MEASUREMENT_DESCRIPTION: TR-FRET MCL-1 binding assay (competition with probe F-Bak)
- RECORDED_CONDITIONS: without HS, read-out: MCL-1 Binding Ki
EXPERIMENTAL_READOUT: Ki (nM)

COMPOUND	TARGET_UNDER_TEST	DATA_VALUE
Cc1c(Cl)c2c(Cl)c(C)c1-c1c(-c3ccc(F)cc3)sc3ncnc(c13)O[C@@H](C(=O)O)Cc1cc(ccc1OCc1ccnc([C@H]3CC[C@@](F)(COC[C@H]4COCCO4)CC3)n1)OC[C@@H](CN1CCN(C)CC1)O2	GST-MCL-1 (Homo sapiens (Human), UniProt Q07820)	0.0133
Cc1c(Cl)c2c(Cl)c(C)c1-c1c(-c3ccc(F)cc3)sc3ncnc(c13)O[C@@H](C(=O)O)Cc1cc(ccc1OCc1ccnc([C@H]3CC[C@H](OC[C@@H]4COCCO4)CC3)n1)OC[C@@H](CN1CCN(C)CC1)O2	GST-MCL-1 (Homo sapiens (Human), UniProt Q07820)	0.02

----------
- TARGET_UNDER_TEST: GST-MCL-1 (Homo sapiens (Human))
- MEASUREMENT_DESCRIPTION: TR-FRET MCL-1 binding assay (competition with probe F-Bak)
- RECORDED_CONDITIONS: without HS, read-out: MCL-1 Binding Ki
pKi: −log10 of the molar value.
# Lookup of reported pKi keyed by entry
EXPERIMENTAL_READOUT: pKi

COMPOUND	TARGET_UNDER_TEST	DATA_VALUE
Cc1c(Cl)c2c(Cl)c(C)c1-c1c(C3CCC3)sc3ncnc(c13)O[C@@H](C(=O)O)Cc1cc(ccc1OCc1ccnc([C@H]3CC[C@H](OCC4COCCO4)CC3)n1)OC[C@@H](CN1CCN(C)CC1)O2 (some centres unmarked)	GST-MCL-1 (Homo sapiens (Human))	10.96
Cc1c(Cl)c2c(Cl)c(C)c1-c1c(-c3ccc(F)cc3)sc3ncnc(c13)O[C@@H](C(=O)O)Cc1cc(ccc1OCc1ccnc(C3=CC[C@@](F)(COC[C@@H]4COCCO4)CC3)n1)OC[C@@H](CN1CCN(C)CC1)O2	GST-MCL-1 (Homo sapiens (Human))	10.74
Cc1c(Cl)c2c(Cl)c(C)c1-c1c(C3=CCCC3)sc3ncnc(c13)O[C@@H](C(=O)O)Cc1cc(ccc1OCc1ccnc(C3=CC[C@@](F)(COC[C@@H]4COCCO4)CC3)n1)OC[C@@H](CN1CCN(C)CC1)O2	GST-MCL-1 (Homo sapiens (Human))	10.44
COc1ccccc1-c1ccc(OC[C@@H]2COCCO2)c(COc2ccc3cc2C[C@H](C(=O)O)Oc2ncnc4sc(-c5ccc(F)cc5)c(c24)-c2c(C)c(Cl)c(c(Cl)c2C)O[C@H](CN2CCN(C)CC2)CO3)n1	GST-MCL-1 (Homo sapiens (Human))	7.86
Cc1c(Cl)c2c(Cl)c(C)c1-c1c(-c3ccc(F)cc3)sc3ncnc(c13)O[C@@H](C(=O)O)Cc1cc(ccc1OCc1nccc(-c3ccc(OC[C@H]4COCCO4)cc3)n1)OC[C@@H](CN1CCN(C)CC1)O2	GST-MCL-1 (Homo sapiens (Human))	8.30
Cc1c(Cl)c2c(Cl)c(C)c1-c1c(-c3ccc(F)cc3)sc3ncnc(c13)O[C@@H](C(=O)O)Cc1cc(ccc1OCc1ccnc(-c3ccc(NC[C@H]4COCCO4)nc3)n1)OC[C@@H](CN1CCN(C)CC1)O2	GST-MCL-1 (Homo sapiens (Human))	12.00
Cc1c(Cl)c2c(Cl)c(C)c1-c1c(C3=CCCC3)sc3ncnc(c13)O[C@@H](C(=O)O)Cc1cc(ccc1OCc1ccnc([C@H]3CC[C@@](F)(COC[C@@H]4COCCO4)CC3)n1)OC[C@@H](CN1CCN(C)CC1)O2	GST-MCL-1 (Homo sapiens (Human))	10.29
COc1ccccc1-c1nccc(COc2ccc3cc2C[C@H](C(=O)O)Oc2ncnc4sc(C[C@@H]5COCCO5)c(c24)-c2c(C)c(Cl)c(c(Cl)c2C)O[C@H](CN2CCN(C)CC2)CO3)n1	GST-MCL-1 (Homo sapiens (Human))	9.95
Cc1c(Cl)c2c(Cl)c(C)c1-c1c(-c3ccc(F)cc3)sc3ncnc(c13)O[C@@H](C(=O)O)Cc1cc(ccc1OCc1ccnc(N3CCC(OC[C@H]4COCCO4)CC3)n1)OC[C@@H](CN1CCN(C)CC1)O2	GST-MCL-1 (Homo sapiens (Human))	9.46
Cc1c(Cl)c2c(Cl)c(C)c1-c1c(C3=CCCC3)sc3ncnc(c13)O[C@@H](C(=O)O)Cc1cc(ccc1OCc1ccnc(C3=CC[C@](F)(COC[C@@H]4COCCO4)CC3)n1)OC[C@@H](CN1CCN(C)CC1)O2	GST-MCL-1 (Homo sapiens (Human))	10.57
Cc1c(Cl)c2c(Cl)c(C)c1-c1c(-c3ccc(F)cc3)sc3ncnc(c13)O[C@@H](C(=O)O)Cc1cc(ccc1OCc1cncc(-c3ccc(OC[C@H]4COCCO4)cc3)n1)OC[C@@H](CN1CCN(C)CC1)O2	GST-MCL-1 (Homo sapiens (Human))	10.32
